System: HOP-92 NSCLC
assay-text: NCI tumour cell line growth inhibition, 48 h; in the data active = GI50 below about 0.43 µM; inactive = the rest
Choose one outcome from this list and give only that: active, inactive

Record request — test call for COc1ccc(/C=C2\C=C(c3ccccc3)N(CCc3ccccc3)C2=O)cc1OC
inactive

Please indicate how the test categorized COc1cc2c(cc1Nc1nc(Nc3cccc(F)c3C(N)=O)c3cc[nH]c3n1)N(C(=O)CN1CCN(C(C)C)CC1)CC2 .
active

GET /call?item= OCc1ccc(N2CCc3ccccc3C2)cc1Cl returns the recorded outcome of this test.
active

Dear all, I need the recorded test outcome for NCC1OC(OC2C(CO)OC(OC3C(O)C(N)CC(N)C3OC3OC(CO)C(O)CC3N)C2O)C(N)C(O)C1OC1OC(CO)C(O)C(O)C1O (stereo not given) , thank you.
inactive

GET /call?item= Oc1cc2ccccc2c(-c2c(O)c(O)cc3ccccc23)c1O returns the recorded outcome of this test.
inactive

For NC(N)=N/N=C/c1ccc(-c2ccc(-c3cc(Cl)cc(Cl)c3)s2)cc1 , which call appears in the assay record?
inactive

Status in this test for CCOc1cccc(-c2nc(N)nc(Nc3ccccc3SSc3ccccc3Nc3nc(N)nc(-c4cccc(OCC)c4)n3)n2)c1 ?
inactive

Which outcome was assigned to O=S(=O)(/N=c1/scc(-c2ccccc2)n1-c1ccccc1)c1ccc(N2N=C3c4ccccc4CC3C2c2cccs2)cc1 (stereo not given) in this test?
inactive

For this compound, state the assay outcome: CCCCCCCCn1ccc2cc(NC(=O)Cn3cc(CN4CCCCC4)nn3)ccc21
inactive

Recorded call for COc1ccc(-n2ccnc2-c2cc(OC)c(OC)c(OC)c2)cc1 ?
inactive

* * *

Please respond with reported GI50 for every item in the list.
Tested on: MDA-MB-231 breast
assay-text: NCI tumour cell line growth inhibition, 48 h

# GI50 of COC1=CC(c2ccc[nH]2)=N/C1=C\c1[nH]c(C)c(C(=O)CCCCC(=O)Oc2ccc3c(c2)CCC2C3CC[C@]3(C)[C@@H](O)CC[C@@H]23)c1C (stereo partly drawn) = 2 µM

compound Clc1ccc(-c2cc(-c3ccccc3)nc(NCCNc3ccnc4cc(Cl)ccc34)n2)cc1 , GI50 observed: 1.88 µM

GI50 for COc1cc(/C=C2\C[C@H]3[C@@H]4CC=C5C[C@@H](O)CC[C@]5(C)[C@H]4CC[C@]3(C)[C@H]2O)ccc1OCCCn1ccnc1 is 0.863 µM

Entry COc1ccc(/C=C2\C=C(c3ccccc3)N(CCc3ccccc3)C2=O)cc1OC , GI50 reported as 4.16 µM

Measured GI50 of CC(=O)Oc1ccc(/C(=C(\C)c2ccc(Cl)cc2)c2ccc(OCCN3CCCCC3)cc2)cc1 : 2.04 µM

Input Cc1ccc(Cl)c(Nc2ccccc2C(=O)O)c1Cl . Output GI50: 32.1 µM

Entry CC(=O)N1N=C2/C(=C/c3ccc(Cl)cc3)CC(C)CC2C1c1ccc(Cl)cc1 (stereo not drawn) , GI50 reported as 18.1 µM

So, c1ccc2cc(C[n+]3ccn(CCCCCCCCCCn4cc[n+](Cc5ccc6ccccc6c5)c4)c3)ccc2c1 ? Its GI50 was 1.33 µM

* * *

Tested on: A498 renal
assay-text: NCI tumour cell line growth inhibition, 48 h; in the data active = GI50 below about 0.43 µM; inactive = the rest
Write down the outcome that applies. Available outcomes: active, inactive

Query: recorded result category for COc1cc([N+](=O)[O-])c(OC)cc1-c1nc2sc(Cl)cn2c1/C=N/NC1=NCCN1 in this test
inactive

Please state the recorded outcome for this compound: O=C(c1ccco1)c1c(C(F)(F)F)n([O-])c2ccc(Cl)cc2[n+]1=O
inactive

Please state the recorded outcome for this compound: CC(=O)c1cc(C(=O)c2ccc3c(c2)Sc2ccccc2N3)c2cc(C)ccn12
active

Identify the outcome logged in this assay for the compound shown: O=c1oc2ccc(Br)cc2c(=O)n1-c1ccc(I)cc1F
active

Entry COc1cc(C(=O)Nc2cc(OC)c3ccn(C)c3c2)cc2c1C[C@]1(C)CC[C@@H](O)C(C)(C)[C@H]1O2 : call = ?
active

What did this assay record as the result for COc1cc(/C=C/C(=O)N2CCN(C(=O)c3cc(OC)c(OC)c(OC)c3)CC2)ccc1OCCCOc1cc2c(cc1OC)C(=O)N1CCC[C@H]1C=N2 ?
active

Kindly provide the recorded test outcome for the following compound: CC(=O)N1N=C2/C(=C/c3ccc(Cl)cc3)CC(C)CC2C1c1ccc(Cl)cc1 (stereo not drawn)
inactive

For this compound, state the assay outcome: NCC1OC(OC2C(CO)OC(OC3C(O)C(N)CC(N)C3OC3OC(CO)C(O)CC3N)C2O)C(N)C(O)C1OC1OC(CO)C(O)C(O)C1O (stereo not drawn)
inactive
